Biological target: UniProt:P09651
Sequence (P09651 whole entry): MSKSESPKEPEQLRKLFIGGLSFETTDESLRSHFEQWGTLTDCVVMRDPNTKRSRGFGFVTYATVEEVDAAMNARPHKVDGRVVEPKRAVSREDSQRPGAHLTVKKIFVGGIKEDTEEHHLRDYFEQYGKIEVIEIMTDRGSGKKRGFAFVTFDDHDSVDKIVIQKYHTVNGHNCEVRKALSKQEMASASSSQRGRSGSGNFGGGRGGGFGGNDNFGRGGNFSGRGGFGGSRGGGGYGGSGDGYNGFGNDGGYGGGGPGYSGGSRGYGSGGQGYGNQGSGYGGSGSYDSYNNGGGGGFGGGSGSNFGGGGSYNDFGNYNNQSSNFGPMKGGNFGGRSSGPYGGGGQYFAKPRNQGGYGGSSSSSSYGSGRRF
Assay: Binding affinity to recombinant GST-tagged human hnRNP A1 expressed in Escherichia coli using QCM biosensor by Scatchard plot analysis
pKd: −log10 of the molar value.
propertyLabel: pKd

[[record]]
compoundstring = "CC[C@@]1(O)C(=O)OCc2c1cc1n(c2=O)Cc2cc3ccccc3nc2-1"
reportedvalue = 7.08

